The entries below come with measured % Biofilm Inhibition values attached.
# System: S. aureus (MRSA SAP0017); also: test concentration or dose not given here
# Type: cell-based, Staphylococcus aureus
# experimental.parameters: SPOT synthesized control peptides, determined as in Table 5; Table 7
Non-standard residues stand in square brackets, D forms with d. No end group written: not given here. hArg = N=C(N)NCCCC[C@H](N)C(=O)O; Agp = N=C(N)NC[C@H](N)C(=O)O; Orn = NCCC[C@H](N)C(=O)O; Dab = NCC[C@H](N)C(=O)O; Dap = NC[C@H](N)C(=O)O
Give the figure together with its unit, number first.

C30 (RGARVIRWKLRR) [Peptide C30] = 100%
C59 (VR[Agp]IVAVRIWRR-NH2; N-terminus assumed; SMILES CC[C@H](C)[C@H](NC(=O)[C@H](CCCNC(=N)N)NC(=O)[C@@H](NC(=O)[C@H](C)NC(=O)[C@@H](NC(=O)[C@@H](NC(=O)[C@H](CNC(=N)N)NC(=O)[C@H](CCCNC(=N)N)NC(=O)[C@@H](N)C(C)C)[C@@H](C)CC)C(C)C)C(C)C)C(=O)N[C@@H](Cc1c[nH]c2ccccc12)C(=O)N[C@@H](CCCNC(=N)N)C(=O)N[C@@H](CCCNC(=N)N)C(N)=O) [Peptide C59] = 104%
C86 (VRLIVAVRI[hArg]RR) [Peptide C86] = 75%

Query string: Would you please give the reported % Biofilm Inhibition of C103 (VRLIVAVRI[Dab]RR-NH2; N-terminus assumed; SMILES CC[C@H](C)[C@H](NC(=O)[C@H](CCCNC(=N)N)NC(=O)[C@@H](NC(=O)[C@H](C)NC(=O)[C@@H](NC(=O)[C@@H](NC(=O)[C@H](CC(C)C)NC(=O)[C@H](CCCNC(=N)N)NC(=O)[C@@H](N)C(C)C)[C@@H](C)CC)C(C)C)C(C)C)C(=O)N[C@@H](CCN)C(=O)N[C@@H](CCCNC(=N)N)C(=O)N[C@@H](CCCNC(=N)N)C(N)=O) [Peptide C103] with S. aureus (MRSA SAP0017)?
Result string: 102%

Query string: Write % Biofilm Inhibition of C51 (VKWKGKVIVVQL) [Peptide C51] ; system used: S. aureus (MRSA SAP0017); also: test concentration or dose not given here
Result string: 79%

Query string: Look up S. aureus (MRSA SAP0017) data: % Biofilm Inhibition of C17 (QQLRWKRVAKAI) [Peptide C17] , then report it.
Result string: 100%

Query string: Report % Biofilm Inhibition under test system S. aureus (MRSA SAP0017) for C109 (VRLIVA[Orn]RIWRR-NH2; N-terminus assumed; SMILES CC[C@H](C)[C@H](NC(=O)[C@H](CCCNC(=N)N)NC(=O)[C@H](CCCN)NC(=O)[C@H](C)NC(=O)[C@@H](NC(=O)[C@@H](NC(=O)[C@H](CC(C)C)NC(=O)[C@H](CCCNC(=N)N)NC(=O)[C@@H](N)C(C)C)[C@@H](C)CC)C(C)C)C(=O)N[C@@H](Cc1c[nH]c2ccccc12)C(=O)N[C@@H](CCCNC(=N)N)C(=O)N[C@@H](CCCNC(=N)N)C(N)=O) [Peptide C109] . Also: test concentration or dose not given here.
Result string: 104%

Query string: Send back S. aureus (MRSA SAP0017) % Biofilm Inhibition of C96 (VR[Dab]IVAVRIWRR) [Peptide C96] only.
Result string: 89%

Query string: Look up and report measured % Biofilm Inhibition (S. aureus (MRSA SAP0017)) for the following substance: C82 (VRL[hArg]VAVRIWRR) [Peptide C82]
Result string: 106%

Query string: Report value only: % Biofilm Inhibition, S. aureus (MRSA SAP0017), C89 (VRL[Dap]VAVRIWRR) [Peptide C89]
Result string: 99%

Query string: Check S. aureus (MRSA SAP0017) data and give % Biofilm Inhibition for C46 (IQIWIIRVIWRW) [Peptide C46] .
Result string: 102%
